Test: Selectivity index, ratio of CC50 for human MT4 cells to EC50 for antiviral activity against HIV1 3B infected in human MT4 cells
Assignment: determine reported selectivity ratio for the given compounds.
I'd appreciate a reply containing only the number, no unit.

Query: Need selectivity ratio of Cc1cc(/C=C/C#N)cc(C)c1Oc1nc(NC2CCN(Cc3ccc(C(N)=O)cc3)CC2)nc2sccc12 , thanks.
Response: 597

Query: Need selectivity ratio of CCOC(=O)c1ccc(CN2CCC(Nc3nc(Oc4c(C)cc(/C=C/C#N)cc4C)c4ccsc4n3)CC2)cc1 , thanks.
Response: 10500

Query: Need selectivity ratio of Cc1cc(/C=C/C#N)cc(C)c1Oc1nc(NC2CCN(Cc3ccc(F)cc3)CC2)nc2sccc12 , thanks.
Response: 279

Query: Need selectivity ratio of Cc1cc(/C=C/C#N)cc(C)c1Oc1nc(NC2CCN(Cc3cccc(C(N)=O)c3)CC2)nc2sccc12 , thanks.
Response: 689

Query: Need selectivity ratio of Cc1cc(/C=C/C#N)cc(C)c1Oc1nc(NC2CCN(Cc3ccc(C#N)cc3)CC2)nc2sccc12 , thanks.
Response: 625
